- Test system: SN12C renal
- experiment: NCI tumour cell line growth inhibition, 48 h; in the data active = GI50 below about 0.43 µM; inactive = the rest
Output constraint: value belongs to active, inactive

COC(=O)/C(=C/N1CCN(C(=O)c2ccco2)C1=S)C(C)=O ... inactive
C=CCSc1n[nH]c(-c2cccs2)n1 ... inactive

What was the test verdict on "CCN(C)S(=O)(=O)Nc1cccc(Nc2ncnc3cc(NC(=O)CCl)ccc23)c1Cl" ?
inactive

What was the test verdict on "N#Cc1ccc(-n2cnc(NC(=O)[C@H]3CCN(C#N)C3)c2)cc1" ?
inactive

What was the test verdict on "COc1cc2cc(C(=O)O)[nH]c2cc1OCc1ccccc1" ?
inactive

What was the test verdict on "Nc1cc(C(F)F)c(-c2nc(N3[C@@H]4CC[C@H]3COC4)nc(N3[C@@H]4CC[C@H]3COC4)n2)cn1" ?
active
